This listing pairs sequences with measured IC50.
test system: CTV-1; assay: cells; type: functional, cell-based, Homo sapiens; details: ctv-1;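 also: growth inhibition of the cell line, read out with a cell viability assay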
Description: SANGER: Inhibition of human CTV-1 cell growth in a cell viability assay.
// units = µM; emit number, no label

residues: CISPLATIN
measured-endpoint: IC50
reported-measurement: 34

Continue with the sequence presented below.
Q: I have this sequence here, `BLEOMYCIN` , and I need its recorded IC50.
A: 4.92

* * *

system: NCI-H1563; test: cells; format: functional, cell-based, Homo sapiens; settings: nci-h1563
Description: SANGER: Inhibition of human NCI-H1563 cell growth in a cell viability assay.
measured-endpoint: IC50 (µM)
Give the number; µM is assumed, so skip it.

Q: Find the recorded IC50 belonging to `CISPLATIN` and report it.
A: 146

* * *

Listed here: items and their measured IC50.
test system: DEL; experiment: cells; format: functional, cell-based, Homo sapiens; settings: Homo sapiens, DEL
Description: SANGER: Inhibition of human DEL cell growth in a cell viability assay.

Consider the worked cases shown below.
compound: COc1cccc2c1C(=O)c1c(O)c3c(c(O)c1C2=O)C[C@@](O)(C(=O)CO)C[C@@H]3O[C@H]1C[C@H](N)[C@H](O)[C@H](C)O1
experimental-system: DEL
IC50: 0.0384 µM
//
compound: Oc1ccc2ccccc2c1SSc1c(O)ccc2ccccc12
experimental-system: DEL
IC50: 9.64 µM
//
compound: C=C(c1ccc(C(=O)O)cc1)c1cc2c(cc1C)C(C)(C)CCC2(C)C
experimental-system: DEL
IC50: > 8 µM
//
compound: COc1cc2ncn(-c3cc(OCc4ccccc4C(F)(F)F)c(C(N)=O)s3)c2cc1OC [GW843682X]
experimental-system: DEL
IC50: 0.0199 µM

The record that follows has no IC50 shown yet.
Q: Reported IC50, compound `O=C(O)c1ccc(-c2c[nH]c3ncc(-c4ccccc4)cc23)cc1C1CCCC1` : ____
A: 5.11 µM
